Molecular target: Protein kinase C iota type (Homo sapiens)
Details: at 10 µM
Result type: residual activity (%)
Answer format: numeric, % implied, no suffix.

Would you mind telling me what residual activity value was observed for Cn1sc(=O)n(Cc2ccccc2)c1=O ? 19

Would you mind telling me what residual activity value was observed for COc1ccc2c(c1)c(C1=C(c3c[nH]c4ccccc34)C(=O)NC1=O)cn2CCCN(C)C ? 62

Would you mind telling me what residual activity value was observed for COc1ccc(-c2cnc3c(-c4ccsc4)cnn3c2)cc1 ? 77

Would you mind telling me what residual activity value was observed for O=C(O)/C=C/c1cc(Br)c(Br)c(Br)c1Br ? 100

Would you mind telling me what residual activity value was observed for COc1ccc(CNC(=O)Nc2ncc([N+](=O)[O-])s2)cc1 ? 110
